Tested on: A375 melanoma cells
Test: Cell proliferation WST-1 assay, single dose (Example 4)
Assay type: cell-based
Settings: 100 μM, 48 hours
property: Cell Viability (% of Vehicle) A375

compound	result
CCOc1ccc(/C=C2\SC(=O)N(CCNS(C)(=O)=O)C2=O)cc1 [Compound 27a]	94 ± 2 % of Vehicle
CCOc1ccc(/C=C2\SC(=O)N(C(C)CN)C2=O)cc1 (centres unmarked) [Compound 22c]	13 ± 2 % of Vehicle
CCOc1ccc(CC2SC(=O)N(CCN)C2=O)cc1 (centres unmarked) [Compound 6]	92 ± 6 % of Vehicle
CCOc1ccc(/C=C2\SC(=O)N(Cc3ccc(C(=O)OC(C)(C)C)cc3)C2=O)cc1 [Compound 28p]	119 ± 1 % of Vehicle
CCCc1ccc(/C=C2\SC(=O)N(CCN)C2=O)cc1 [Compound 30e]	0.6 ± 0.1 % of Vehicle
CCOc1ccc(/C=C2\SC(=O)N(CCN(C)C)C2=O)cc1 [Compound 24a]	115 ± 2 % of Vehicle
CCOc1ccc(/C=C2\SC(=O)N(CCCN)C2=O)cc1 [Compound 22a]	0.7 ± 0.1 % of Vehicle
CCOc1ccc(/C=C2\SC(=O)N(Cc3ccccc3)C2=O)cc1 [Compound 28i]	110 ± 4 % of Vehicle
CCOc1ccc(/C=C2\SC(=O)N(Cc3ccncc3)C2=O)cc1 [Compound 28l]	105 ± 12 % of Vehicle
CCOc1ccc(/C=C2\SC(=O)N(Cc3ccc(C(=O)O)cc3)C2=O)cc1 [Compound 28q]	2.0 ± 0.5 % of Vehicle
CCOc1ccc(/C=C2\SC(=O)N(CCNCC(C)C)C2=O)cc1 [Compound 23c]	1.0 ± 0.1 % of Vehicle
CCOc1ccc(/C=C2\SC(=O)N(CCNC(=O)OCc3ccccc3)C2=O)cc1 [Compound 26d]	103 ± 3 % of Vehicle
NCCN1C(=O)S/C(=C\c2ccccc2)C1=O [Compound 30a]	82 ± 9 % of Vehicle
CCOc1ccc(/C=C2\SC(=O)N(CCCl)C2=O)cc1 [Compound 28f]	113 ± 9 % of Vehicle
CCOc1ccc(/C=C2\SC(=O)N(CCNS(=O)(=O)c3ccc(C#N)cc3)C2=O)cc1 [Compound 27b]	109 ± 6 % of Vehicle
Cc1ccc(/C=C2\SC(=O)N(CCN)C2=O)cc1 [Compound 30d]	23 ± 6 % of Vehicle
CCOc1ccc(/C=C2\SC(=O)N(Cc3cccc(C(=O)O)c3)C2=O)cc1 [Compound 28r]	59 ± 1 % of Vehicle

---

A collection of molecules and their measured Cell Viability (% of Vehicle) HL-60
Tested on: HL-60 leukemic cells
Experiment: Cell proliferation WST-1 assay, single dose (Example 4)
Assay type: cell-based
Conditions: 100 μM, 48 hours
property: Cell Viability (% of Vehicle) HL-60

molecule	result
CCOc1ccc(/C=C2\SC(=O)N(C[C@H](N)C(=O)OC)C2=O)cc1 [Compound 22d]	25 ± 5 % of Vehicle
CCOc1ccc(/C=C2\SC(=O)N(CCNC(=O)OC(C)(C)C)C2=O)cc1 [Compound 25c]	31 ± 5 % of Vehicle
CCOc1ccc(/C=C2\SC(=O)N(CC(=O)OC(C)(C)C)C2=O)cc1 [Compound 28g]	95 ± 18 % of Vehicle

---

Catalogue of Cell Viability (% of Vehicle) HeLa values
Test system: HeLa cervical carcinoma cells
Experiment: Cell proliferation WST-1 assay, single dose (Example 4)
Assay type: cell-based
Conditions: 100 μM, 48 hours
Experimental: In addition, compounds were tested in RPMI-7951 cells, which also contain mutated BRaf and are resistant to BRaf inhibitors due to the overexpression of MAP3K8 (the gene encoding COT/Tp12) that provides an alternative mechanism to indirectly or directly activate ERK proteins. […] Cell proliferation was evaluated by water soluble tetrazolium-1 (WST-1) assay as previously described. […] After incubation, WST-1 reagent was added and absorbance was read at 450 nm with background subtraction taken at 650 nm. […]
property: Cell Viability (% of Vehicle) HeLa

molecule	result
CCOc1ccc(/C=C2\SC(=O)N(CCNC(=O)OC(C)(C)C)C2=O)cc1 [Compound 25c]	81 ± 1 % of Vehicle
CCOc1ccc(/C=C2\SC(=S)N(CCN)C2=O)cc1	26 ± 6 % of Vehicle
CCOc1ccc(/C=C2\SC(=O)N(CCNC(=O)OC(C)(C)C)C2=O)cc1 [Compound 26b]	88 ± 5 % of Vehicle
NCCN1C(=O)S/C(=C\c2ccccc2O)C1=O [Compound 30i]	68 ± 3 % of Vehicle
CCOc1ccc(/C=C2\SC(=O)N(CCNS(C)(=O)=O)C2=O)cc1 [Compound 27a]	82 ± 1 % of Vehicle
[H]/N=C(/N)NCCN1C(=O)SC(=Cc2ccc(OCC)cc2)C1=O [Compound 28c]	17 ± 2 % of Vehicle
CC(C)COc1ccccc1/C=C1\SC(=O)N(CCN)C1=O [Compound 30j]	0.8 ± 0.1 % of Vehicle
CCOc1ccc(CC2SC(=O)N(CCN)C2=O)cc1 (stereo not drawn)	90 ± 4 % of Vehicle
CCOc1ccc(/C=C2\SC(=O)N(CCCN)C2=O)cc1 [Compound 22a]	12 ± 2 % of Vehicle
